# test system: SUDV GPddmuc (Sudan virus (SUDV)), Q66814
# test name: ELISA
# run parameters: remark: other sources report otherwise
I'd appreciate it if you could supply EC50 values for the items below.
Give bare numbers, in nM.

Need EC50 for each of these binders.
1. FVM09 (antibody, V domains shown) VH: EVQLVQSGAEVKRPGESLTISCKTSGYSFTDSWVAWVRQMPGKGLEWLGSIYPGDSETKYNPSFQGHVTISADKSVTTTYLKWSSLKASDTATYYCVKGSETWGQGVLVTVSS VL: QLVLTQPASLSASPGASASLTCTFSGGINVAGYNILWYQQKAGSPPRYLLRYKSDSTKDQGSGVPSRFSGSKDASANTGILRISGLQSEDEADYYCAIGHSSGWIFGGGTRLTVL
2. FVM20 (antibody, V domains shown) VH: EVQLVESGAEVKRPGESLTISCKTSGYSFTGSWISWVRQMPGKGLEWLGSIYPGDSETKYNPSFQGHVTISADKSVTTTYLKWSSLKASDTATYYCVKGSETWGQGVLVTVSS VL: NFMLTQSASLSASPGASASLTCTFSGGINVAGYHIFWYQQNPGSPPRYLLRYKSDSEKDQGSGVPSRFSGSKDASANTGILRISGLQSEDEADYYCAIGHSSGWIFGGGTRLTVL
3. FVM04 (antibody, V domains shown) VH: EVQLVQSGGGLVQPGGSMRLSCEASGLSLSDYFMHWVRQAQGKGLEWIGLIQTKAFTYKTEYPAAVKGRFTISRDDSKNTLYLQMSSLKPEDTALYYCIAVTPDFYYWGQGVLVTVSS VL: DVVMTQSPSFLSASVGDRVTITCRASQDITINLNWFQHKPGKAPKRLIYVASRLERGVPSRFSGSGSGTEFTLTISSLQPEDFATYYCQQYNNYPLTFGPGTKLDIKRTV

1. 7.73
2. 0.119
3. 0.164

I am curious: what EC50 value has been reported for FVM17 (antibody, V domains shown) VH: EVQLVQSGAEVKRPGESLTISCKTSGYSFTDSWISWVRQMPGKGLEWMGSIYPGDSDARYNPSFQGHVTISADKSISTTYLKWSSLKASDTATYYCVKGSETWGQGVLVTVSS VL: QAVVTQPASLSASPGTSASLTCTFSGGINVAGYNILWYQQKPGSPPRFLLRYKSDSDNVQGSGVPSHFSGSKDASANTGILRISGLQSEDEADYYCAIGHSSGWIFGGGTRLTVL ?
0.113

// data source = patent US20170334973A1
